What pKd was measured for each of the following?
biological target: the molecule itself; assay: AUC
Units for pKd: none; it is -log10 of a concentration expressed in mol/L.

Request: Query: pKd; subject: cadherin-10 EC1-EC2 adhesive fragment (mouse), wild-type (domain or fragment) GWMWNQFFLLEEYTGSDYQYVGKLHSDQDKGDGSLKYILSGDGAGTLFIIDEKTGDIHATRRIDREEKAFYTLRAQAINRRTLRPVEPESEFVIKIHDINDNEPTFPEEIYTASVPEMSVVGTSVVQVTATDADDPSYGNSARVIYSILQGQPYFSVEPETGIIRTALPNMNRENKEQYQVVIQAKDMGGQMGGLSGTTTVNITLTD
Response: 4.37

Request: Query: pKd; subject: cadherin-12 EC1-EC2 adhesive fragment (mouse), wild-type (domain or fragment) GWVWNQFFVLEEYMGSEPQYVGKLHSDLDKGEGTVKYTLSGDGAGTVFTIDETTGDIHAIRSLDREEKPFYTLRAQAVDIETRKPLEPESEFIIKVQDINDNEPKFLDGPYVASVPEMSPVGAYVLQVKATDADDPTYGNSARVVYSILQGQPYFSIDPKTGVIRTALPNMDREVKEQYQVLIQAKDMGGQLGGLAGTTVVNITLTDVNDNPPRF
Response: 5.08

Request: Query: pKd; subject: cadherin-11 EC1-EC2 adhesive fragment (mouse), wild-type (domain or fragment) GWVWNQFFVIEEYTGPDPVLVGRLHSDIDSGDGNIKYILSGEGAGTIFVIDDKSGNIHATKTLDREERAQYTLMAQAVDRDTNRPLEPPSEFIVKVQDINDNPPEFLHEIYHANVPERSNVGTSVIQVTASDADDPTYGNSAKLVYSILEGQPYFSVEAQTGIIRTALPNMDREAKEEYHVVIQAKDMGGHMGGLSGTTKVTITLTDVNDNPPKF
Response: 4.47
